target: PI 3-kinase gamma (Homo sapiens)
Sequence (P48736 whole entry): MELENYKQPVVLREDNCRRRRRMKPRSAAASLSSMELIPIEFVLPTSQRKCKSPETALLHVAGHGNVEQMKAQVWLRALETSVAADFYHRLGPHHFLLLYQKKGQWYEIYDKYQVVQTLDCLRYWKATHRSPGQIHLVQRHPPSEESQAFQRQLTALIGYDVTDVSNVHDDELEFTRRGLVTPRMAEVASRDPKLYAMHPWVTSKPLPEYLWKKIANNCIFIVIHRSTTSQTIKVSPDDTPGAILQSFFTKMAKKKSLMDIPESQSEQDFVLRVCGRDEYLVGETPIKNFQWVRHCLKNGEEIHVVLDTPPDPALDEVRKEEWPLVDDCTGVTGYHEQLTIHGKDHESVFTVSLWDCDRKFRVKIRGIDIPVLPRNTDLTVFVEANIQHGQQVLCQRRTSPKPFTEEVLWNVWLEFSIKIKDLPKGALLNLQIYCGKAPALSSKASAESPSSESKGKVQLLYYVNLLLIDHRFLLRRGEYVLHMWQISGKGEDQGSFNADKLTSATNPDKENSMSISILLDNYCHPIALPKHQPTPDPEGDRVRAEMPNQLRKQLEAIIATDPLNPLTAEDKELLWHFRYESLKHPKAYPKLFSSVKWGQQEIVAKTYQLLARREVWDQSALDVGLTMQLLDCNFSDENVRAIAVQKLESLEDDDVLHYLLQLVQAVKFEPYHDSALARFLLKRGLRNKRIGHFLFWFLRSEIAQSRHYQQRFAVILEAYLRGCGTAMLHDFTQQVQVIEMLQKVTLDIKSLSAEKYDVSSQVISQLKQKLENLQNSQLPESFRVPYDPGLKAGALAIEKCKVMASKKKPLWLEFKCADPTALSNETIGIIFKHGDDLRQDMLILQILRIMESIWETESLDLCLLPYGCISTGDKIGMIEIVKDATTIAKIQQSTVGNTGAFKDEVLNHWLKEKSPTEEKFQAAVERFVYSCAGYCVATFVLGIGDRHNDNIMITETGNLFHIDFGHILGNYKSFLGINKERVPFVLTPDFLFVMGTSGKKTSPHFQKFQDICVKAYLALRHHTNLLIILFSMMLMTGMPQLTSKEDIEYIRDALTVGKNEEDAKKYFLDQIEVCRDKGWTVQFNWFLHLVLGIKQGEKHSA
assay-endpoint: IC50 (nM)
# number only, unit nM dropped from output

Recall the reported IC50 of Cc1ccc(S(=O)(=O)NCC2COCCN2C)cc1-c1cnc(N)c(-c2cn(C)nc2C)n1 (single isomer, unassigned) when tested on PI 3-kinase gamma (Homo sapiens).
27

* * *

tested on: IL-8-induced neutrophil shape change in human whole blood; assay: Whole blood neutrophil shape change assay, assay L; assay type: cell-based; settings: read-out: Assay L WBSC IC50
assay-endpoint: pIC50
# log scale: pIC50 equals minus log10 of the concentration in mol/L

Cc1ccc(S(=O)(=O)NCC2(CO)CCOCC2)cc1-c1cnc(N)c(-n2cncn2)n1 [Example 127.50] | 5.97
Cc1nc(-c2nc(-c3cc(S(=O)(=O)NCCC(C)(C)O)ccc3C)cnc2N)cs1 [Example 119.30] | 5.94

For the compound Cc1cc(-c2nc(-c3cc(S(=O)(=O)NC4CCOCC4)ccc3C)cnc2N)ccn1 [Example 129.10] , report pIC50.
5.79
